Origin of measurements: patent US20120207760A1

TESTED_SYSTEM: recombinant homotrimeric HA, A/South Carolina/1/18 H1N1 (Influenza A virus A/South Carolina/1/18 (H1N1))
TEST_PROTOCOL: trimeric HA microarray, transfection set 2
SETUP_CONDITIONS: remark: other sources report otherwise
Trimeric HA Binding RLU overview
OBSERVATION_TYPE: Trimeric HA Binding RLU (RLU)

{"columns": ["BINDER", "OBSERVATION_TYPE", "READOUT_UNIT", "REPORTED_RESULT"],
 "data": [
  ["TCN-563 (5237_B21) (antibody, V domains shown) VH: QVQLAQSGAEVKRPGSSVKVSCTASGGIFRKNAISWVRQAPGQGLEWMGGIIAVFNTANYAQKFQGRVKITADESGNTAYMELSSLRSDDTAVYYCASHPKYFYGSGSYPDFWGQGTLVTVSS VL: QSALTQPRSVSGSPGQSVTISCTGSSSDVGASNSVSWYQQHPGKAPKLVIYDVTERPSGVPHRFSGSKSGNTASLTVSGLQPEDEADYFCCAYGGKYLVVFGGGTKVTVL", "Trimeric HA Binding RLU", "RLU", 17800],
  ["TCN-526 (5084_C17) (antibody, V domains shown) VH: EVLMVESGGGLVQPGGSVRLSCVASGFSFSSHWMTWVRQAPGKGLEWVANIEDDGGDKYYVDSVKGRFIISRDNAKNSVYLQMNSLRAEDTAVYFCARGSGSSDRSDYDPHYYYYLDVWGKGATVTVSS VL: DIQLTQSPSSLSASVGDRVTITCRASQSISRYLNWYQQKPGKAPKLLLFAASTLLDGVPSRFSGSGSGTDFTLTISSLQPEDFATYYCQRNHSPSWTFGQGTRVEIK", "Trimeric HA Binding RLU", "RLU", 2310],
  ["TCN-522 (3212_I12) (antibody, V domains shown) VH: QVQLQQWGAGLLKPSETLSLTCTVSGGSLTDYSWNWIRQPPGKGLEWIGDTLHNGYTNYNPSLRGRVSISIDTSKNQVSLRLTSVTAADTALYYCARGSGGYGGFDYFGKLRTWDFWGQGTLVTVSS VL: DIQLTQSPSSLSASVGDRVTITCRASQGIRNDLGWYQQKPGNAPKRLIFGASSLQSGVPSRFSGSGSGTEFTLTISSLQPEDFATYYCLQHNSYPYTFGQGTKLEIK", "Trimeric HA Binding RLU", "RLU", 39600]
]}
